Run description: yeast display, Sf9 membrane polyspecificity reagent, FACS + sequencing; frameworks hold sequencing errors
Recorded endpoint: polyreactivity (PSR sort gate)

Use the examples below as a reference point.
{"Sequence text": "QDQLVESGRGLVQAGGSLRLSCAASGSTFSYYAIGWYRQAPGKERELVAAISRRGGSTYYADSVKGRFTISRDNAKNSVYLQMNSLKPEDTAVYYCNRVTYTGYDSWGQGTQVTVSS", "polyreactivity (PSR sort gate)": "high polyreactivity"}
{"Sequence text": "QVQLVESGGGLVQAGGSLRLSCAASGRIFRYNAMGWYRQAPGKERELVATITDGGSTSYADSVKGRFTISRDNAKNTVYLQMNSLKPEDTAVYYCARDPLPSYWKVWSRPTFDYWGQGTQVTVSS", "polyreactivity (PSR sort gate)": "low polyreactivity"}
{"Sequence text": "QVQLVESGGGLVQAGGSLRLSCAASGSTFGYYAMGWDRQAPGKERELVAAISRRVGSTYYADSVKGRFTISRDNAKNTVSLQMNSLNPEDTAVYYWASTSVNPWRGDYDMYYWGQGTQVTVSS", "polyreactivity (PSR sort gate)": "high polyreactivity"}
{"Sequence text": "QVQLVESGGGLVQAGGSLRLSCAASGYIFSLNAMGWYRQAPGKERELVAGIRKRGGSTYYADSVKGRFTISRDNAKNTVYLQMNSLKPEDTAVYYCAAQPALTYRFYYWGQGTQVTVSS", "polyreactivity (PSR sort gate)": "high polyreactivity"}

Next item in the queue.
So, `QVQLVESGGGLVQAGGSLRLSCAASGSIFGYYTMGWYRQAPGKEREFVAAISWSGGSTYYADSVKGRFTISRDNAKNTVYLQMTSLKPEDTAVYYCNADVYWEYDYWGQGTQVTVSS` ? Its polyreactivity (PSR sort gate) was low polyreactivity

====

Run description: yeast display, Sf9 membrane polyspecificity reagent, FACS + sequencing; frameworks hold sequencing errors
Recorded endpoint: polyreactivity (PSR sort gate)

Use the examples below as a reference point.
{"Sequence text": "QVQLLESWGGLVQAGGSLRLSCAASGLIFYRNAMGWYRQAHGKERELVAAISVSGGSTYYADSVKGRFTISRDNAKNTVYLQMNRLKPEDTAVYYCAAKTWRSRGKEMDYWGQGTQVNVSS", "Recorded endpoint": "polyreactivity (PSR sort gate)", "Result": "high polyreactivity"}
{"Sequence text": "QVQLVESGGGLVQAGGSLRLSCAASGRIFGVYAMGWYRQAPGKERELVAAIYSGSSTYYADSVKGRFTISRDNAKNTVYLHMNSLKPEDTAVYYCAAVSRDDNYQDYYYWGQGTQVTVSS", "Recorded endpoint": "polyreactivity (PSR sort gate)", "Result": "low polyreactivity"}
{"Sequence text": "QVQLVESGGGLVQAGGSLRLSCAASGRIFAVYAMGWYRQAPGKEREFVAAISYSGGITYYADSVKGRFTISRDNAKNTVYLQMNSLKPEDTAVYYCNAYYYFWGQGTQVTVSS", "Recorded endpoint": "polyreactivity (PSR sort gate)", "Result": "low polyreactivity"}
{"Sequence text": "QVQLVESGGGLVQAGGSLRLSCDASGNTFVRYAMGWFRQAPGKERELVAGISASGGSTSYADSVKGRFTISRDNAKNTVYLQMNSLKPEDTAVYYCARNYWLYSSSYDSWGQGTQVTVSS", "Recorded endpoint": "polyreactivity (PSR sort gate)", "Result": "high polyreactivity"}

Next item in the queue.
So, `QVQLVESGAGIVQAGGSLRLSCAASGSTFGRYAMGLYTQAPGKERELVAAISASGGSTYYADSVKGRFTISRDNAKTTVYLQMNSLTPEDTAVYYCAKDRPQTRLWYYFIDDYDYRGQGTQVTVSS` ? Its polyreactivity (PSR sort gate) was high polyreactivity

====

Run description: yeast display, Sf9 membrane polyspecificity reagent, FACS + sequencing; frameworks hold sequencing errors
Recorded endpoint: polyreactivity (PSR sort gate)

Use the examples below as a reference point.
{"Sequence text": "KVQLVESGGGLVQAGGSLRLSCAASGGTFYRYAMGWYRQAPGKERELVAAITSGSSTYYADSVKGRFTISRDNAKNTVYLQMNSLKPEDTAVYYCAAARYSRLSRTRPGKYGYWGQGTQVTVSS", "polyreactivity (PSR sort gate)": "low polyreactivity"}
{"Sequence text": "QVQLVESGGGLVQAGGSLRLICAASGRIFKYNAMGWDRQAPGTERELVAAISSSGGSTYYADSVKGRFTISRDNAKYTVYLLMNSLKPEDTAVYYCAARFNSGVYRYDYWGQGTQVTVSS", "polyreactivity (PSR sort gate)": "high polyreactivity"}
{"Sequence text": "QVQLVESGGGLVQAGGSLRLSCAASGLIFYVYAMGWYRQAPGKERELVATISSSGGSTYYADSVKGRFTISRDNAKNTVYLQMNSLKPEDTAVYYCAARWSHYRTGWGDTSYHYYYWGQGTQVTVSS", "polyreactivity (PSR sort gate)": "high polyreactivity"}
{"Sequence text": "QVQLVESGGGLVQAGGSLRLSCAASGSTFDYNAMGWYRQAPGKEREFVAAISFSGSSTYYADSVKGRFTISRDNAKNTVYLQMNSLKPEDTAVYYCAKKVFASYRGYGYWGQGTQVTVSS", "polyreactivity (PSR sort gate)": "high polyreactivity"}
{"Sequence text": "QVQLVESGGGLVQAGGSRRLSCAASGRTFVSNVMGWYRPAPGKDRELVAAINWSGDSTYYADSVKGRFTISRDNAKNTVYLQMNSLKPEDTAGYYCAVQGGYFDTWDGDYWGQGTQVTVSS", "polyreactivity (PSR sort gate)": "low polyreactivity"}

So, `QVQLVESGGGLVQAGGRLRLSCAASGFIFIRNAMGWYRQAPGKERELVAAITRSGGRTYYADSVKGRFTISRDKAKNTVYLQMNSLKPEDTAVYYCAADADAAWGQGTQVTVSS` ? Its polyreactivity (PSR sort gate) was high polyreactivity

So, `QVQLVESGGRLVQAGGSLRLSCAASGRIFVRNAKGWYRQAPGKERELVADITNGGSTNYADSVKGRFTISRDNAKNTVYLQMNSLKPEDTAVVYWAADTLGVYDGDYWGQGTQVTVSS` ? Its polyreactivity (PSR sort gate) was low polyreactivity

====

Run description: yeast display, Sf9 membrane polyspecificity reagent, FACS + sequencing; frameworks hold sequencing errors
Recorded endpoint: polyreactivity (PSR sort gate)

Use the examples below as a reference point.
{"Sequence text": "QVQLVESGGGLVQAGGSLRLSCAASGRTFRSYTMGWYRQAPGKERELVARISSSGGRTYYADSVKGRFTISRDNAKNTVYLQMNSLKPEDTAVYYCAAAIVSYGRNDYWGQGTQVTVSS", "polyreactivity (PSR sort gate)": "high polyreactivity"}
{"Sequence text": "QVQLVESGGGLVQAGGSLRLSCAASGFIFYRYAMGRYRQAPGKERELVAAISWGGGSTTYYADSVKGRFTISRDNAKNTVYLQMNSLKPEDTAVYYCAAYIGKGYGSEYYYWGQGTQVTVSS", "polyreactivity (PSR sort gate)": "low polyreactivity"}
{"Sequence text": "QVQLVESGGGLVQAGGSLRLSCAASGFIFRRNAMGWSRQAPRKERELVAAISSRGGTTYYADSVKGRFTISRDNAKNTVYLQMNSLKPEDTAVYYCNAVKFGATAYDYWGQGTQVTVSS", "polyreactivity (PSR sort gate)": "high polyreactivity"}
{"Sequence text": "QDQLVESGGGLFQEGGSLRLSCSASGSTFWVNTIRWYRQAPGKATELVADISSGGNTYYAHSVKGRFTISRDNAKNTVYLQMNSLKTEDTAVYYCNADPFTRWVIRDDYGGQGTQVTVSS", "polyreactivity (PSR sort gate)": "low polyreactivity"}
{"Sequence text": "QVQLVESGGGLVQAGGSLRLSCSASGSIYSYYTMGSYIQAPGKERELVAAITGSGGRTYYADSVKGRFTISRDNAKNTVYLQMNSLKQEDTAVYYCNADRHYVPYYSRPRYIPYDYWGQGTQVTVSS", "polyreactivity (PSR sort gate)": "high polyreactivity"}
{"Sequence text": "QVQLVESGGGLVQAGGSLRLSCAASGRTFTGSVMGWYRKAPGKERELVAAISWNGGRTYYADSVKGRFTLSRDNAKNTVYLQMYSLKPEDTGVYLCGTYGYNSYDYWGHGTQVTVSS", "polyreactivity (PSR sort gate)": "high polyreactivity"}
{"Sequence text": "QQLQESGGGLVQAGGSLRLSCAASGSISGSVLMGWYRQAPGKEREFVASISLGGNTNYADSVKGRFTISRENAKNTVYLQMNSLKPEVAAVYYCAAYISLFETHPYWGQGTQVTVSS", "polyreactivity (PSR sort gate)": "high polyreactivity"}
{"Sequence text": "QVQLVESGGGLVQAGGSLRLSCAASGFTFRINAMGWYRQAPGKERELVAVITGSGTSTYYADSVKGRFTISRDNAKNTVYLQMNSLKPEDTAVYYCAKRGFISQKYYYWGQGTQGTVSS", "polyreactivity (PSR sort gate)": "high polyreactivity"}

Next item in the queue.
So, `QVQLVESGGGLVQAGGSLRLSCAASGRIFYRNAMGWYRQAPGTDRELVARITSSGGTTYYADSVKGRFTISRDNAKNTVYLQMNSLQPEDTAVYYCAARSVTQRKMYYWGQGTQVTVSS` ? Its polyreactivity (PSR sort gate) was high polyreactivity
